- TARGET: aqp1/aqp2/aqp3 null cells expressing TbAQP2-WT (Trypanosoma brucei brucei)
- Sequence (Q6ZXT3 whole entry): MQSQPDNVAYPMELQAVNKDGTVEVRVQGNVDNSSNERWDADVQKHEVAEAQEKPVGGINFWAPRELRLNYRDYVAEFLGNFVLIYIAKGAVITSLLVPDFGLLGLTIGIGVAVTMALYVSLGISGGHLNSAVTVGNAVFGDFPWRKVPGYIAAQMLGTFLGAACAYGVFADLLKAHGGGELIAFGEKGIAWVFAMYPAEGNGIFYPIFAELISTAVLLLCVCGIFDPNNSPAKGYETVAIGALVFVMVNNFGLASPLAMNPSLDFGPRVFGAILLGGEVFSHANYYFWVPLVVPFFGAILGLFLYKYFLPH
- ASSAY: Inhibition of [3H]-glycerol uptake

ITEM SMILES	TARGET	UNITS TEXT	EC50
N=C(N)c1ccc(OCCCCCOc2ccc(C(=N)N)cc2)cc1	aqp1/aqp2/aqp3 null cells expressing TbAQP2-WT (Trypanosoma brucei brucei)	nM	27.5

* * *

- Tested on: tbaqp2/tbaqp3 null cells expressing TbAQP2 L118W
- ASSAY: microbe, parasite or virus in culture
- Assay type: cell-based, Trypanosoma brucei brucei
- CONDITION: Trypanosoma brucei, read-out: Alamar blue EC50, single repeats
pEC50: −log10 of the molar value.
METRIC NAME: pEC50

ITEM SMILES	OBSERVED
N=C(N)c1ccc(OCCCCCOc2ccc(C(=N)N)cc2)cc1	7.28
